- METHOD SUMMARY: Clearance in Sprague-Dawley rat at 5 mg/kg, po administered in methocel suspension and 1 mg/kg, iv administered in 60% PEG200
- Assay type: ADME, organism-based
- CONDITION INFO: in vivo
PARAMETER MEASURED: clearance (mL/min/kg)
Give bare numbers, in mL/min/kg.

Field request: clearance | item: "N#Cc1cc(Cl)cc(Oc2c(C(F)(F)F)ccn(Cc3n[nH]c4ncccc34)c2=O)c1"
18

----------
- METHOD SUMMARY: Half life in Beagle dog at 0.5 mg/kg, iv administered in 60% PEG200 and 1 mg/kg, po administered in 10% tween as ball-milled particles
- Type: ADME, organism-based, Canis lupus familiaris
- CONDITION INFO: in vivo
PARAMETER MEASURED: half-life (h)
Numbers only, in h.

Field request: half-life | item: Cn1c(Cn2ccc(C(F)(F)F)c(Oc3cc(Cl)cc(C#N)c3)c2=O)n[nH]c1=O [DORAVIRINE]
37

Values from ChEMBL document CHEMBL3112429
